molecular target: soybean lipoxygenase (Glycine max)
Quantity name: pIC50
Field pIC50 (float): negative decimal logarithm of the concentration in molar.

Task: For the molecule CCCCCCCCCCC/C=C/c1ccc(/C=C/C(=O)O)cc1 [Example 24, 4-[(E)-1-Tridecenyl]cinnamic acid] , what pIC50 is on record?
Output: 4.52

Task: For the molecule CCCCCCCCCCC/C=C\c1ccccc1OCCCC(=O)OCC [Example 55] , what pIC50 is on record?
Output: 4.26

Task: For the molecule CCCCCCCCCCCC#Cc1ccc(/C=C/C(=O)OC)cc1 [Example 4, Methyl 4-(1-tridecynyl)cinnamate] , what pIC50 is on record?
Output: 3.85

Task: For the molecule CCCCCCCCCCCC#Cc1ccc(/C=C/C(=O)O)cc1 [Example 9, 4-(1-Tridecynyl)cinnamic acid] , what pIC50 is on record?
Output: 3.57

###

target: cyclo-oxygenase (Bos taurus); construct: lyophilised bovine seminal vesicle microsomes; from tissue; host or cells: bovine seminal vesicle microsomes; assay: Cyclo-oxygenase Screen: inhibition of cyclo-oxygenase in bovine seminal vesicle microsomes; assay type: biochemical; conditions: 50 μM compound, pH 8.0, 37° C., 5 min preincubation, 2 min reaction, 5-15 μM arachidonic acid, read-out: Cyclooxygenase Inhibition at 50 μM
Sequence (O62664 25-600): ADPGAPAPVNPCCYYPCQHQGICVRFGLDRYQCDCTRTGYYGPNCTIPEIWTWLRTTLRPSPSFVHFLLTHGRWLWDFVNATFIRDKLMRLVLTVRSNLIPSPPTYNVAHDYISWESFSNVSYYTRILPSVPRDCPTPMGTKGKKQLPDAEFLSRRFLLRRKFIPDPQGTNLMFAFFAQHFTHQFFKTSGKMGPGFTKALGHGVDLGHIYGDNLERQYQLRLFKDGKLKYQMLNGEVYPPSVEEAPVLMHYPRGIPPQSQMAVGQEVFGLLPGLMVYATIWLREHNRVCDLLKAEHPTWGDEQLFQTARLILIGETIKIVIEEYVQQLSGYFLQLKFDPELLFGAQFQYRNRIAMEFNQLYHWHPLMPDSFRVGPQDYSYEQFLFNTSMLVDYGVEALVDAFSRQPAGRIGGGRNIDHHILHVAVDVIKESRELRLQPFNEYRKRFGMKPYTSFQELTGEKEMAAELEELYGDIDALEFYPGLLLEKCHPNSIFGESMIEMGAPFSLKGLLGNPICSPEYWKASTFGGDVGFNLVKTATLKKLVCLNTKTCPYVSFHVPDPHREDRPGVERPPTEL
Task for the reader: assign each of the following molecules its reported inhibition at 50 µM.
Entry rule: numbers only, all in %.

Task: For the molecule CCCCCCCCCCC/C=C\c1ccccc1OCCCC(=O)O , what inhibition at 50 µM is on record?
Output: 67

Task: For the molecule CCCCCCCCCCC/C=C\c1ccc(OCC(=O)O)cc1 , what inhibition at 50 µM is on record?
Output: 51

Task: For the molecule CCCCCCCCCCC/C=C\c1ccccc1OCC(=O)O , what inhibition at 50 µM is on record?
Output: 92.4

Task: For the molecule CCCCCCCCCCC/C=C/c1ccc(/C=C/C(=O)O)cc1 [Example 24, 4-[(E)-1-Tridecenyl]cinnamic acid] , what inhibition at 50 µM is on record?
Output: 52

Task: For the molecule CCCCCCCCCCC/C=C/c1ccccc1OCCCC(=O)O , what inhibition at 50 µM is on record?
Output: 64

Task: For the molecule CCCCCCCCC/C=C/c1ccc(/C=C/C(=O)O)cc1 , what inhibition at 50 µM is on record?
Output: 52

Task: For the molecule CCCCCCCCCCC/C=C\c1ccccc1/C=C/C(=O)O , what inhibition at 50 µM is on record?
Output: 26

Task: For the molecule CCCCCCCCCCC/C=C\c1ccccc1CCC(=O)O , what inhibition at 50 µM is on record?
Output: 62.7

Task: For the molecule CCCCCCCCCCC/C=C\c1ccc(CCC(=O)O)cc1 , what inhibition at 50 µM is on record?
Output: 67

Task: For the molecule CCCCCCCCCCCCC/C=C\c1ccc(/C=C/C(=O)O)cc1 , what inhibition at 50 µM is on record?
Output: 66.5

Task: For the molecule CCCCCCCCCCC/C=C/c1ccccc1OCCCCC(=O)O , what inhibition at 50 µM is on record?
Output: 67

Task: For the molecule CCCCCCCCCCC/C=C\c1cccc(/C=C/C(=O)O)c1 , what inhibition at 50 µM is on record?
Output: 91

Task: For the molecule CCCCCCCCCCC/C=C\c1ccccc1OCCC(=O)O , what inhibition at 50 µM is on record?
Output: 78.9

Task: For the molecule CCCCCCCCCCC/C=C\c1ccc(/C=C/C(=O)O)cc1 , what inhibition at 50 µM is on record?
Output: 25.6

Task: For the molecule CCCCCCCCCCCC#Cc1ccccc1CCC(=O)O [Example 42, 3[2-(1-Tridecynyl)phenyl]propanoic acid] , what inhibition at 50 µM is on record?
Output: 80

Task: For the molecule CCCCCCCCCCC/C=C/c1ccc(CCC(=O)O)cc1 , what inhibition at 50 µM is on record?
Output: 40

Task: For the molecule CCCCCCCCC/C=C\c1ccc(/C=C/C(=O)O)cc1 , what inhibition at 50 µM is on record?
Output: 70.5

Task: For the molecule CCCCCCCCCCCC#Cc1cccc(/C=C/C(=O)O)c1 , what inhibition at 50 µM is on record?
Output: 79.8

Task: For the molecule CCCCCCCC/C=C\c1ccccc1OCCCC(=O)O , what inhibition at 50 µM is on record?
Output: 72

Task: For the molecule CCCCCCCCCCCC#Cc1ccccc1/C=C/C(=O)O , what inhibition at 50 µM is on record?
Output: 86.5

###

Protein target, amino acids: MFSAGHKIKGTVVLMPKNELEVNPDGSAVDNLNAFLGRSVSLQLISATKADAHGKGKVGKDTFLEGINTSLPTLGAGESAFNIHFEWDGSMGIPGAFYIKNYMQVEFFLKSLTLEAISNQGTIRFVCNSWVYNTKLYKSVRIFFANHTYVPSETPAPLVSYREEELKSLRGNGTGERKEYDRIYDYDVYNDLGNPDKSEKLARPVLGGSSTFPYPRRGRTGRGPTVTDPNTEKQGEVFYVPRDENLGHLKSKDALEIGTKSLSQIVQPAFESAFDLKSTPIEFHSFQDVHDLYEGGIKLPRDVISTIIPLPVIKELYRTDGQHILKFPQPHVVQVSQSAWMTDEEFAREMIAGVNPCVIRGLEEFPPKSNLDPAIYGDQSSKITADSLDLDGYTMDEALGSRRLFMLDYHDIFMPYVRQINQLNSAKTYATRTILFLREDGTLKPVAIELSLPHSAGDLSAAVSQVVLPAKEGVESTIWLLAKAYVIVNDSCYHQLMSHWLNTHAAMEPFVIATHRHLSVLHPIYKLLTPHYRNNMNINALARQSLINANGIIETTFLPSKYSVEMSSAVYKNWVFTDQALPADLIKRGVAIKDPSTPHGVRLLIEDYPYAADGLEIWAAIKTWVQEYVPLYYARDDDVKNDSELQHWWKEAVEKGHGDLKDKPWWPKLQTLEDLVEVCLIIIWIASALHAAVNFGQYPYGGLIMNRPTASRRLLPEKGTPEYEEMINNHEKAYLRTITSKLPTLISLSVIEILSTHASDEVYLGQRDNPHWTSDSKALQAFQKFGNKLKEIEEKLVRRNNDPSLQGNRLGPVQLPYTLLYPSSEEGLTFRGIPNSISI
Mark 1 for IC50 under 80 µM, 0 if at or over.

Task: Lab log: compare recorded IC50 with 80 µM; is it strictly lower for CCCCCCCCCCC/C=C\c1ccccc1OCCCC(=O)O [Example 62] ?
Output: 1

Task: Lab log: compare recorded IC50 with 80 µM; is it strictly lower for CCCCCCCCC/C=C\c1ccc(OCCCC(=O)O)cc1 [Example 92] ?
Output: 1

Task: Lab log: compare recorded IC50 with 80 µM; is it strictly lower for CCCCCCCCCC/C=C\c1ccc(OCCC(=O)O)cc1 [Example 90] ?
Output: 1

Task: Lab log: compare recorded IC50 with 80 µM; is it strictly lower for CCCCCCCCCCC/C=C\c1ccc(/C=C/C(=O)OC)cc1 [Example 15, Methyl 4-[(Z)-1-tridecenyl]cinnamate] ?
Output: 0

Task: Lab log: compare recorded IC50 with 80 µM; is it strictly lower for CCCCCCCCCCC/C=C\c1ccc(OCC(=O)O)cc1 [Example 89] ?
Output: 0

Task: Lab log: compare recorded IC50 with 80 µM; is it strictly lower for CCCCCCCCCCCC#Cc1ccccc1/C=C/C(=O)O [Example 12] ?
Output: 0

Task: Lab log: compare recorded IC50 with 80 µM; is it strictly lower for CCCCCCCCCCC/C=C\c1ccccc1/C=C/C(=O)O [Example 30] ?
Output: 1
